- method.notes: Cmax in human plasma at 500 mg, po
- Assay type: ADME, organism-based
- Set-up: dose 500 mg, route oral

{"compound": "O=C(Nc1ncc([N+](=O)[O-])s1)c1ccccc1O [TIZOXANIDE]", "Cmax / µg/mL": 10.6}
